Experiment: BSK_SAg_SRB: Viability Assessment in the BioMAP Diversity Plus: SAg Assay (AID 2283096);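 note: cells read one day after compound addition; hits may be either gain or loss of signal compared with DMSO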
Settings: primary human HUVEC with PBMC
Calls of active or inactive are those of the source. Rule for the calls: active = hit-call score of the fitted dose curve at least 0.9, where 1 is the maximum; inactive = score below 0.9.
MEASUREMENT NAME: AC50

Below, 4 compounds whose answers are already recorded.
Cc1ccc(OP(=O)(Oc2ccc(C)cc2)Oc2ccc(C)cc2)cc1 (tested in a mixture with another compound): 20 µM (active)
CC(C)(C)C(O)C(Oc1ccc(-c2ccccc2)cc1)n1cncn1 (stereo not given): inactive
COC(C)(C)CCC[C@H](C)C/C=C/C(C)=C/C(=O)OC(C)C: 33.3 µM (active)
O=C1C(Cl)=C(Cl)C(=O)C(Cl)=C1Cl: 30.9 µM (active)

# ---- query compound ----
Request: Fill in reported AC50 for this entry: `CCc1cc(C)cc(CC)c1-c1c(OC(=O)C(C)(C)C)n2n(c1=O)CCOCC2`
Result: inactive

====

Biological target: human IkappaB Kinase alpha (IKKa), CHUK (gene 1147) (UniProt O15111)
Sequence (O15111 whole entry, looked up): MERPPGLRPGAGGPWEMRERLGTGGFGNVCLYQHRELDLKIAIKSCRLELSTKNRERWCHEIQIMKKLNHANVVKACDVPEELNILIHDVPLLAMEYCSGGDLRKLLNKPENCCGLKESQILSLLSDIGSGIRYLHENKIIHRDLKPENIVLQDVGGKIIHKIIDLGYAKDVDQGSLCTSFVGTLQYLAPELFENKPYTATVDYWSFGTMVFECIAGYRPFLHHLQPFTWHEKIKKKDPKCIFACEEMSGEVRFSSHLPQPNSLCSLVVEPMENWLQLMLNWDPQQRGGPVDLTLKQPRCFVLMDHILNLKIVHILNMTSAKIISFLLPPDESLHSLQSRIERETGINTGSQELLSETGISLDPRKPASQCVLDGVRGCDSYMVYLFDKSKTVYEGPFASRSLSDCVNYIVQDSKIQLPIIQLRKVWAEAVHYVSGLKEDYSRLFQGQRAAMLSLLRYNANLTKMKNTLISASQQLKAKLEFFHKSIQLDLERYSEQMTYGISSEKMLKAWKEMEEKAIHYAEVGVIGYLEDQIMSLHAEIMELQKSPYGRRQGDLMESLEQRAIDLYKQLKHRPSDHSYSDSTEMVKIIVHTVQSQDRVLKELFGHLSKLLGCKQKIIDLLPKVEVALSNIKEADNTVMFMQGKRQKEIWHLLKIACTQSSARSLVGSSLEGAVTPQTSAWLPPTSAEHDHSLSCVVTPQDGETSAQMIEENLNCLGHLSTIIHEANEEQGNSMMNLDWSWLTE
Assay: NVS_ENZ_hIKKa: NovaScreen (NVS) Enzymatic Assay for human IkappaB Kinase alpha (IKKa) (AID 2283167)
Inconclusive results are not listed. The source made the active and inactive calls. The calls were made as follows: active = hit-call score of the fitted dose curve at least 0.9, where 1 is the maximum; inconclusive = response in the unintended direction; inactive = score below 0.9.
MEASUREMENT NAME: AC50

Example cases with answers are listed next.
CCCCCCCC/C=C\CCCCCCCC(=O)OC[C@@H](O)[C@H]1OC[C@H](O)[C@H]1O: inactive
CCCCCCCCCCCCc1ccccc1S(=O)(=O)O: 31.7 µM (active)
CCCC(CCC)C(=O)O: inactive
CC/C(=C(\c1ccccc1)c1ccc(OCCN(C)C)cc1)c1ccccc1: inactive

// moving on: another record for AC50
Request: Note AC50 for the compound shown: `S=C([S-])NCCNC(=S)[S-].[Mn+2]`
Result: 30.1 µM (active)

====

Target: Retinoic acid receptor RXR-alpha (Homo sapiens) (UniProt P19793)
Sequence (P19793 whole entry, looked up): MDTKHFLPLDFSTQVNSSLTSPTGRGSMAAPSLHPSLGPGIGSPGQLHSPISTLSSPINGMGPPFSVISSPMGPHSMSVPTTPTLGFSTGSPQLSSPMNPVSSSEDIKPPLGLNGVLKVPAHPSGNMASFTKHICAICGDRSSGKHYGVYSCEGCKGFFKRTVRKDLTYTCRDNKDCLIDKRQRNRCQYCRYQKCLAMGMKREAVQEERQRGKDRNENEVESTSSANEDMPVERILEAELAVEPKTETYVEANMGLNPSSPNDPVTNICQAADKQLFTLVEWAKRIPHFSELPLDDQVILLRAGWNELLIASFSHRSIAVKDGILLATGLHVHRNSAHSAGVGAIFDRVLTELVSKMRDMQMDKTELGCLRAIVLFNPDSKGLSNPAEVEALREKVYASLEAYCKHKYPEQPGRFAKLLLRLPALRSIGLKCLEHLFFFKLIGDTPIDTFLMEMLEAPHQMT
Experiment: OT_NURR1_NURR1RXRa_1440: Odyssey Thera (OT) 24-hour HEK293T Protein Complementation Assay for Nurr1/retinoid X receptor (RXR) (AID 2283386)
Inconclusive results are not listed. Calls of active or inactive are those of the source. How the source made its calls: active means hit-call score of the fitted dose curve at least 0.9, where 1 is the maximum; inconclusive means response in the unintended direction; inactive means score below 0.9.
Respond with a class label; see Y = active, N = inactive

Request: Which outcome was assigned to `CC(=O)C=Cc1ccccc1` in this test?
Result: N

Request: Outcome logged for `Cc1cc(C)c(C2=C(OC(=O)CC(C)(C)C)C3(CCCC3)OC2=O)c(C)c1` in this assay:
Result: N

Request: State the result this test recorded for CNC(=N[N+](=O)[O-])NCC1CCOC1 (stereo unspecified) .
Result: N

Request: Outcome? `O=C=Nc1ccccc1`
Result: N

Request: Test call, this compound: Cc1ccc(OP(=O)(Oc2ccc(C)cc2)Oc2ccc(C)cc2)cc1 (tested in a mixture with another compound)
Result: N

Request: Hi, sorry to bother you, what did the test record for `O=C(CCl)c1ccccc1` ?
Result: Y

Request: Query: recorded result category for CCC1CCC(=O)O1 (stereo unspecified) in this test
Result: N

Request: Please let me know the test result on file for `C=CCN(CC=C)C(=O)C(Cl)Cl` .
Result: N

Request: Which outcome was entered for the compound `Nc1ccc(Cl)c(Cl)c1` in this test?
Result: N

Request: # fetch the recorded call for `CC1CCCC1.[C-]#[O+].[C-]#[O+].[C-]#[O+].[Mn]` here
Result: N

Request: Lab log entry: CC(Cc1ccc(C(C)(C)C)cc1)CN1C[C@@H](C)O[C@@H](C)C1 (stereo partly specified) — outcome as called in the assay?
Result: Y

Request: Would you mind telling me which call this test gave `CC(C)(Cl)Cl` ?
Result: N

Request: Each compound tested received a call. Report the one for `CC(C)(O)C#N` .
Result: N

Request: Hello, I am checking results. What call was entered for `O=[N+]([O-])O` ?
Result: N

Request: Which outcome did this test record for the compound `CCOP(=O)(OCC)Oc1ccc([N+](=O)[O-])cc1` ?
Result: N

Request: For this compound, state the assay outcome: `COc1cc(OC)nc(Oc2cccc(Oc3nc(OC)cc(OC)n3)c2C(=O)O)n1`
Result: N

Request: Hi team, can someone confirm the assay call for `O=[N+]([O-])c1ccc(Cl)cc1` ?
Result: N

Request: I'd appreciate the recorded outcome for `c1ccc(P(c2ccccc2)c2ccccc2)cc1` from this test.
Result: N

Request: Status in this test for `CCOC(=O)COc1ccc(Cl)cc1Cl` ?
Result: N

Request: So what was the verdict on `O=P(O)(Oc1ccccc1)Oc1ccccc1` in this test?
Result: N

Request: Check the results log: what was the call for `Nc1ccccc1` ?
Result: N

Request: Dear colleague, could you share the recorded outcome for CC(=O)c1cc2c(cc1C)C(C)(C)C(C)CC2(C)C (stereo unspecified) when you have a moment?
Result: N

Request: Record request — test call for `Nc1cc(Cl)cc(Cl)c1`
Result: N

Request: Check the results log: what was the call for `CCCC=NO` ?
Result: N

Request: GET /call?item= `C=CCO` returns the recorded outcome of this test.
Result: N

Request: Name the outcome recorded for `CC(C)c1ccc(O)cc1` in the assay.
Result: N

====

Molecular target: Cellular tumor antigen p53 (Homo sapiens) (UniProt P04637)
Sequence (P04637 whole entry, looked up): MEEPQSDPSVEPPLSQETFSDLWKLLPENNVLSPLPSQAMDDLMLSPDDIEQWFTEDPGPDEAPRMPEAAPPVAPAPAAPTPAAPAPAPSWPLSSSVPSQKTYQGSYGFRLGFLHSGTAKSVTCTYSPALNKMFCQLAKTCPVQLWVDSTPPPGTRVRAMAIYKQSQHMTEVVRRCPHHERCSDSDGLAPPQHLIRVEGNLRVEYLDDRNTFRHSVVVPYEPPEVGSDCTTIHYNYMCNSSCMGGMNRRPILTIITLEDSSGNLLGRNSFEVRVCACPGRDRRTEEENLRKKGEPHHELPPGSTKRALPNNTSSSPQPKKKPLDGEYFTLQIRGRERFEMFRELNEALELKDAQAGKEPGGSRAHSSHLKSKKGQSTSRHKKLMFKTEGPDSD
Test: TOX21_p53_BLA_p2_ratio: Tox21 HCT-116 p53 Agonism Beta-lactamase Assay, Ratio, Phase 2 (AID 2283592)
Results filed as inconclusive are left out. Active and inactive are the calls of the source. Rule for the calls: active = hit-call score of the fitted dose curve at least 0.9, where 1 is the maximum; inconclusive = response in the unintended direction; inactive = score below 0.9.
Response enum: true = active, false = inactive

Request: What did this assay record as the result for `C[C@]12CC[C@H](O)C[C@H]1CC[C@@H]1[C@@H]2CC[C@]2(C)[C@@H](c3ccc(=O)oc3)C[C@H]3O[C@]132` ?
Result: false

Request: For `IC(I)=C(I)I` , what call appears in the results of this test?
Result: true

Request: GET /call?item= `O=C(O)CBr` returns the recorded outcome of this test.
Result: false

Request: Dear colleague, could you share the recorded outcome for `C=C1C[C@@H]2[C@H](CC[C@]3(C)C(=O)CC[C@@H]23)[C@@]2(C)C=CC(=O)C=C12` when you have a moment?
Result: false

Request: Write down the call the test reported for this molecule. Item: CCOP(=S)(OCC)SC(CCl)N1C(=O)c2ccccc2C1=O (stereo unspecified)
Result: false

Request: Can you look up the reported call for `CON(C)C(=O)Nc1ccc(Br)cc1` for me?
Result: false

Request: What was the test verdict on `OP(O)c1ccccc1` ?
Result: false

Request: Fill in: this test's call for `COC(=O)C1(O)c2ccccc2-c2ccccc21` is ___
Result: false

Request: Answer briefly: the call reported for CC(C)(O)[C@@H]1[C@H]2OC(=O)[C@@H]1[C@]1(O)C[C@H]3O[C@]34C(=O)O[C@H]2[C@]14C (tested in a mixture with another compound) in this assay.
Result: false

Request: Dear all, I need the recorded test outcome for Cc1coc2c1CCC(C)C2 (stereo unspecified) , thank you.
Result: false

Request: Hi, sorry to bother you, what did the test record for `CN1CCN=C(c2ccccc2)c2cc(Cl)ccc21` ?
Result: true

Request: What did the test return for `COCC(=O)N(c1c(C)cccc1C)N1CCOC1=O` ?
Result: false

Request: Entry `c1cc[n+]2c(c1)-c1cccc[n+]1CC2` : call = ?
Result: false

Request: Called result for `O=S1(=O)OCCO1`
Result: false

Request: Tell me the recorded outcome of this test for `S=C=Nc1ccccc1` .
Result: false

Request: What was the test verdict on `F/C(COc1ccc2c(c1)[nH]c1ccccc12)=C1/CN2CCC1CC2` ?
Result: false

Request: Tell me the recorded outcome of this test for `COc1cccc(C(=O)CCN[C@@H](C)[C@H](O)c2ccccc2)c1` .
Result: false

Request: I would be grateful if you could indicate the recorded call for `O=C(O)c1ccc2[nH]cc(CCCCN3CC=C(c4ccccc4)CC3)c2c1` .
Result: false

Request: Check the results log: what was the call for C#CC(C)(O)CC (stereo unspecified) ?
Result: false

Request: Outcome logged for `COc1cccc([C@@]2(O)CCCC[C@@H]2CN(C)C)c1` in this assay:
Result: false

Request: What was the test verdict on `O=C(NC(=O)c1c(F)cccc1F)Nc1ccc(Oc2ccc(C(F)(F)F)cc2Cl)cc1F` ?
Result: false

Request: Assay result, entry `CCOC(=O)N(C)C(=O)CSP(=S)(OCC)OCC` — outcome?
Result: false

Request: Please let me know the test result on file for `OC(c1ccccc1)(c1ccccc1)C1CCNCC1` .
Result: false

Request: Which outcome was entered for the molecule `Cc1nc(N)nc(N)n1` in this test?
Result: false

Request: Recorded call for CCC(C)c1cc([N+](=O)[O-])cc([N+](=O)[O-])c1OC(=O)C=C(C)C (stereo unspecified) ?
Result: true

Request: For `Clc1ccc([C@@H]2C[C@H]3CC[C@@H]2N3)cn1` , which call appears in the assay record?
Result: false

Request: Called result for `[Cl][Hg][c]1ccccc1`
Result: true

Request: Per the assay record, what outcome was assigned to `[H+].[H+].[Hg+2].[O-]B([O-])[O-].[c-]1ccccc1` ?
Result: true

Request: Hi team, can someone confirm the assay call for `[O-][Br+2]([O-])O` ?
Result: false

Request: Hello, I am checking results. What call was entered for `CC1(C)C(=O)NC(=O)NC1=O` ?
Result: false

Request: GET /call?item= `S=C=NCc1ccccc1` returns the recorded outcome of this test.
Result: false

Request: Assay outcome for CN[C@H]1C[C@@H](N)[C@H](O)[C@@H](O[C@@H]2O[C@H](CO)[C@H](O)[C@@H]3OC4(O[C@H]23)O[C@H](C(N)CO)[C@H](O)[C@H](O)C4O)[C@@H]1O (stereo partly specified) : what was it?
Result: false

Request: Query: recorded result category for `CC[N+](=O)[O-]` in this test
Result: false

Request: Name the outcome recorded for `COC1=CC=C2[C@H]3Cc4ccc(OC)c5c4[C@@]2(CCN3C)[C@H]1O5` in the assay.
Result: false

Request: For `Oc1cccc(Cl)c1Cl` , which call appears in the assay record?
Result: false

Request: Could you please tell me the result logged for `Oc1ccc2c3c1O[C@H]1[C@@H](O)C=C[C@H]4[C@@H](C2)NCC[C@@]341` in this assay?
Result: false

Request: State the result this test recorded for `C#C[C@]1(O)C=C[C@H]2[C@@H]3CCC4=CC(=O)CC[C@@H]4[C@H]3CC[C@@]21CC` .
Result: false

Request: What classification did `C[C@]12CC[C@H]3[C@@H](CCC4=CC(=O)CC[C@@H]43)[C@@H]1CC[C@@H]2O` end up with in this test?
Result: false

Request: Query: recorded result category for CCNC1(c2cccs2)CCCCC1=O (stereo unspecified) in this test
Result: false

Request: Would you mind telling me which call this test gave C(CCOCC1CO1)COCC1CO1 (stereo unspecified) ?
Result: false

Request: How did this test come out for `N[C@@H]1C[C@H]1c1ccccc1` ?
Result: false

Request: Kindly provide the recorded test outcome for the following molecule: ClCC(Br)CBr (stereo unspecified)
Result: false

Request: What is the recorded call for this molecule in the test? `[O]=[Cd]`
Result: false

Request: Please indicate how the test categorized `CCCC[n+]1cccc(C)c1` .
Result: false

Request: Any idea what this test logged for `COc1cc(CCN)cc(OC)c1OC` ?
Result: false

Request: So what was the verdict on CCC1(c2ccccc2)CCC(=O)NC1=O (stereo unspecified) in this test?
Result: false

Request: Short answer needed: outcome of this test for `CCC1(c2cnc[nH]2)Cc2ccccc2C1` ?
Result: false

Request: Tell me the recorded outcome of this test for `FC(F)(F)c1cccc(C2=CCN(CCc3ccc4ccccc4c3)CC2)c1` .
Result: false

Request: Kindly provide the recorded test outcome for the following molecule: `C=Cc1cccc(CCl)c1`
Result: false

Request: # lookup: test call for CNC(=O)NC(O)C(Cl)(Cl)Cl (stereo unspecified)
Result: false

Request: Recorded test outcome, item `CCOc1ccc2c3c1O[C@H]1[C@@H](O)C=C[C@H]4[C@@H](C2)N(C)CC[C@@]341`
Result: false

Data origin: PubChem BioAssay (EPA / NIEHS)
